Would you mind telling me the reported Inf. G: Trichophyton mentagrophytes B70554, pIC50 of each entry?
Tested on: Trichophyton mentagrophytes
ASSAY_EXPLANATION: Antifungal activity in vitro, resazurin growth inhibition: Trichophyton mentagrophytes (B70554)
Type: cell-based
No unit in the answer, only the number.

Query :: Find the recorded Inf. G: Trichophyton mentagrophytes B70554, pIC50 belonging to Cc1cccc2c1CN=C(c1cc3ccccc3o1)c1cccn1-2 and report it.
Result :: 6.83

Query :: Please look up its Inf. G: Trichophyton mentagrophytes B70554, pIC50: c1ccc2c(c1)CN=C(c1cc3ccccc3s1)c1cccn1-2
Result :: 5.99

Query :: Looking for the measured Inf. G: Trichophyton mentagrophytes B70554, pIC50 of Clc1cccc2c1CN=C(c1cc3ccccc3o1)c1cccn1-2 , can you help?
Result :: 7.07

Query :: Record request: Inf. G: Trichophyton mentagrophytes B70554, pIC50 value, item CCn1cc(C2=NCc3c(Cl)cccc3-n3cccc32)cn1
Result :: 4.47

Query :: Entry Fc1ccc2oc(C3=NCc4c(Cl)cccc4-n4cccc43)cc2c1 : reported Inf. G: Trichophyton mentagrophytes B70554, pIC50 = ?
Result :: 6.23
